Where do these numbers come from? They come from PubChem BioAssay (NCI).

# Tested on: KM12 colon
# assay-comment: NCI-60 one-dose screen, 48 h
# protocol-conditions: 10 µM unless noted
# Experimental: Growth inhibition of the KM12 human tumor cell line is measured as a screen for anti-cancer activity. Cells are grown in 96 well plates and exposed to the test compound for 48 hours. Compounds are tested at a single concentration, which is 10^-5 M for most compounds. The reported endpoint is percent growth (GI% or GIPRCNT), where numbers from 0 - 100% represent growth inhibition, and numbers from -100% - 0 represent cell death. For example, a value of 40 represents 60% growth inhibition. […]
Compounds without any hit were thinned out: in the full panel of roughly 83,000, 20% have a hit. Active and inactive are the calls of the source. How the source made its calls: active means growth percent below 10; inactive means the rest.
Respond only with the outcome that fits, drawn from yes = active, no = inactive

Problem: Recorded call for COc1ccc(/C=C/C(=O)c2cccc(NC(=O)CSc3nc4ccccc4c(=O)n3-c3ccccc3)c2)cc1OC ?
Result: no

Problem: // param item: CCOC(=O)C(=O)/C(=C\c1ccc(Cl)cc1)C(=O)N1C(=S)NC(=O)C1CC(C)C (configuration not stated) ; yields the recorded call
Result: no

Problem: What was the test verdict on COc1ccc(C2CC(c3cccc(Nc4nc(Cl)nc5cc(OC)c(OC)cc45)c3)=Nc3c(N)nc(N)nc3N2)cc1 (configuration not stated) ?
Result: no

Problem: What was the test verdict on O=C1CC(=O)N2CSCN(C(c3ccccc3)c3nc4ncncc4[nH]3)C2=N1 (configuration not stated) ?
Result: no

Problem: Record request — test call for C#CCOc1ccc(/C=N\Nc2nc(-c3ccc(C)cc3)cs2)cc1OC
Result: no

Problem: Please indicate how the test categorized COc1cc2nc(Cl)nc(Nc3cccc(C4=Nc5c(N)nc(N)nc5NC(c5ccc6c(c5)OCO6)C4)c3)c2cc1OC (configuration not stated) .
Result: no

Problem: Which outcome did this test record for the molecule Nn1c(N/N=C/c2nc3ccccc3s2)n[nH]c1=S ?
Result: no

Problem: What was the test verdict on C#C[C@]1(O)CC[C@H]2[C@@H]3CC=C4c5sc(-c6ccc(C)cc6)nc5CC[C@]4(C)[C@H]3CC[C@@]21C ?
Result: no

Problem: Record request — test call for CC[C@@H](CO)Nc1ccc2ncc(C#Cc3cncc(C(=O)Nc4ccc(CN5CCN(C)CC5)c(C(F)(F)F)c4)c3)n2n1
Result: yes

Problem: Which outcome was entered for the molecule O=C(O)c1ccc(-n2cc(CNc3cc(F)c(F)c(F)c3)c(-c3ccc(F)cc3)n2)cc1 in this test?
Result: no

Problem: Tell me the assay call for COc1ccc(/C=C/C(=O)c2cc(S(N)(=O)=O)c(OC)cc2OC)cc1 please.
Result: no

Problem: Name the outcome recorded for COc1ccc(-n2c(SCc3n[nH]c(=S)o3)nc3ccc(Cl)cc3c2=O)cc1 in the assay.
Result: no

Problem: Name the outcome recorded for O=C(NNc1nc2cc(F)c(F)cc2n2c(CN3CC4CNCC4C3)ccc12)c1ncccn1 (configuration not stated) in the assay.
Result: no

Problem: How did this test come out for O=C(CN1CCN(c2cc(=O)n(-c3ccccc3)c3ccccc23)CC1)Nc1nc(-c2ccc(Cl)cc2)cs1 ?
Result: no

Problem: Dear all, I need the recorded test outcome for CC(=O)Nc1cccc(Nc2nc(N[C@H](C)c3ccccc3)c3ccccc3n2)c1 , thank you.
Result: no

Problem: Outcome? COc1cccc(N2CCN(c3ncnc4c3[nH]c3ccc(F)cc34)C[C@H]2C)c1
Result: no

Problem: How did this test come out for COc1ccccc1NCc1cccn1Cc1ccc(F)cc1 ?
Result: no

Problem: Outcome logged for N/C(=N\C(N)=N\c1nc2ccccc2s1)c1ccc2ccccc2c1 in this assay:
Result: no

Problem: Entry COc1cc(OC)c(/C=C/S(=O)(=O)Cc2ccc(OC)c(NC(=O)CCC(=O)NO)c2)c(OC)c1 : call = ?
Result: yes

Problem: Each molecule tested received a call. Report the one for NC(N)=Nc1ccc(Oc2cccc(Nc3cccc(C(F)(F)F)c3)c2)cn1 .
Result: yes

Problem: Tell me the recorded outcome of this test for CC(=O)c1cc(C(=O)c2ccc(Br)cc2)n2cc(C)cc(C)c12 .
Result: no

Problem: # outcome recorded in this test, key = Nc1nc(-c2cccc([N+](=O)[O-])c2)c(N=Nc2ccc([N+](=O)[O-])cc2Cl)s1
Result: yes

Problem: Tell me the recorded outcome of this test for Nc1cc(-c2c[nH]c3ccc(Br)cc23)nc2cc(-c3c[nH]c4ccc(Br)cc34)nn12 .
Result: yes

Problem: Hi, sorry to bother you, what did the test record for Cc1ccc(CSc2nc(-c3ccc(Cl)cc3)c(C#N)c(N3CCOCC3)n2)cc1 ?
Result: no

Problem: I'd appreciate the recorded outcome for NC(N)=Nc1ccc(Nc2cccc(Nc3ccc(Cl)c(C(F)(F)F)c3)c2)cn1 from this test.
Result: yes

Problem: Check the results log: what was the call for C/C(=N\O)[C@H]1C[C@]23CC[C@]4(C)[C@H](CC[C@@H]5[C@@]6(C)CC/C(=N/O)C(C)(C)[C@@H]6CC[C@]54C)[C@H]2[C@H](C)C1(C)OC3 ?
Result: no

Problem: What outcome does the record of this test show for CCNC(=O)Oc1ccc(/C(=C(/C)c2ccccc2)c2ccc(OCCN3CCCCCC3)cc2)cc1 ?
Result: yes

Problem: Could you kindly confirm the outcome this assay logged for O=C1Nc2ccccc2/C1=C/c1ccc(COCC2CO2)n1-c1ccc(O)cc1 (configuration not stated) ?
Result: no

Problem: Outcome logged for O=S(=O)(NCCCNc1nccc(-c2[nH]c(-c3ccccc3)nc2-c2ccc(Cl)c(O)c2)n1)c1cccc(F)c1 in this assay:
Result: no

Problem: Would you mind telling me which call this test gave CS(=O)(=O)c1ccc(-n2cc(/C=N/O)c(-c3ccccc3)n2)cc1 ?
Result: no

Problem: Can you look up the reported call for COc1cc(OC)c(S(N)(=O)=O)cc1C(=O)/C=C/c1ccc(C)cc1 for me?
Result: yes

Problem: Test call for this molecule, please: CCOc1ccccc1NC1=C(Cl)C(=O)c2nc(C)ccc2C1=O
Result: no

Problem: Please indicate how the test categorized NC(N)=Nc1ccc(Oc2cccc(NC(N)=Nc3ccc(I)cc3F)c2)cc1 .
Result: no

Problem: Assay result, entry Cc1ccc(-c2nnc(SCc3ccc(O)c4ncccc34)n2-c2ccccc2)cc1 — outcome?
Result: yes

Problem: Would you mind telling me which call this test gave CCO/C=N/C1=C(C#N)C(c2ccc(OC)cc2)c2sc3c(C)cccc3c2O1 (configuration not stated) ?
Result: no

Problem: Recorded call for COc1ccc(-c2nc3ccc(-c4nnc(SCC(=O)Nc5ccc(C(=O)/C=C/c6ccc(Cl)cc6)cc5)o4)cc3[nH]2)cc1 ?
Result: no

Problem: What classification did COc1cc(OC)cc(C(=O)Nc2cccc(C#Cc3cccc4[nH]nc(N)c34)c2)c1 end up with in this test?
Result: no
